This section presents substances with their documented Cmax values.
# assay method text: Pharmacokinetic profiles of PEGylated peptides in Fisher 344 rats
# Format: in vivo, rat
# condition: 100 μg agonist/kg, plasma RIA, mean N = 3
Response body: numeric value in µg/mL, unit text excluded.

Data request: Entry under review: C6-HSDAVFTEQY(OMe)TOrnLRAibQLAAbuAibOrnYAibQSIOrnOrnGGPSSGAPPPC(PEG20K)C(PEG20K)-NH2 (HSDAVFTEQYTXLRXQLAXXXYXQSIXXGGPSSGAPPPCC; C6 acyl, two PEG20K, C-terminal amide; Synthetic sequence PEGylated VPAC2 receptor agonist) [Agonist P521] . Reported Cmax?
Data returned: 0.233

Data request: Entry under review: C6-HSDAVFTEQY(OMe)TOrnLRAibQLAAbuAibOrnY(OMe)LQAibIOrnOrnGGPSSGAPPPC(PEG20K)C(PEG20K)-NH2 (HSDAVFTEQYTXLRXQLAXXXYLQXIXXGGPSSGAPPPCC; C6 acyl, non-natural residues, two PEG20K, C-terminal amide; Synthetic sequence PEGylated VPAC2 receptor agonist) [Agonist P574] . Reported Cmax?
Data returned: 0.07
